# Protocol: Solubility in model fasted duodenal (MFD) solution
# Format: physicochemical
# Condition info: fassgf or other biorelevant, PBS containing 7.3 mM sodium taurocholic acid and 1.4 mM POPC
Parameter: solubility

>>> experimental_result("Cc1ccc(-c2cc(C(F)(F)F)nn2-c2ccc(S(N)(=O)=O)cc2)cc1")
"~40 µg/mL"

====

# Protocol: Log P of drug
# Assay type: physicochemical
# Condition info: octanol/water
Parameter: logP

>>> experimental_result("Cc1onc(-c2ccccc2)c1-c1ccc(S(N)(=O)=O)cc1 [Drug 1]")
"~3"
